This collection of values is drawn from ChEMBL document CHEMBL2346657.

System: Escherichia coli
Experiment: Antimicrobial activity against Escherichia coli MTCC 723 at 500 ug/ml after 24 hrs by cup plate method
Type: functional
Conditions: MTCC 723, 24 h, read-out: IZ
RECORDED ENDPOINT: zone of inhibition at 500 µg/mL (mm)
Give your result in mm as a bare value.

Challenge: Looking for the measured zone of inhibition at 500 µg/mL of N#CC1=C(N)OC(c2ccc(Cl)cc2)=CC1c1c(-c2ccccc2)[nH]c2ccccc12 (configuration not stated) , can you help?
Response given: 5

Challenge: Would you mind doing Cc1ccc(C2=CC(c3c(-c4ccccc4)[nH]c4ccc(C)cc34)c3c(N)nc(=O)[nH]c3O2)cc1 (configuration not stated) as well?
Response given: 13

Challenge: One more compound: Cc1ccc2[nH]c(-c3ccccc3)c(C3C=C(c4ccc(Cl)cc4)Oc4[nH]nc(N)c43)c2c1 (configuration not stated)
Response given: 9

====

Tested on: Aspergillus oryzae
Assay: Antimicrobial activity against Aspergillus oryzae MTCC 3567 at 1000 ug/ml after 72 hrs by cup plate method
Assay type: functional
Details: MTCC 3567, 72 h, read-out: IZ
List of zone of inhibition at 1000 µg/mL values.
Supply the numeric figure in mm, leaving out any unit text.

Below, each entry is followed by its recorded zone of inhibition at 1000 µg/mL result.
Nc1nc(=O)[nH]c2c1C(c1c(-c3ccccc3)[nH]c3ccccc13)C=C(c1ccc(Cl)cc1)O2 (configuration not stated): 3
Nc1n[nH]c2c1C(c1c(-c3ccccc3)[nH]c3ccc(Cl)cc13)C=C(c1ccc(Cl)cc1)O2 (configuration not stated): 10
Nc1nc(=S)[nH]c2c1C(c1c(-c3ccccc3)[nH]c3ccccc13)C=C(c1ccc(Cl)cc1)O2 (configuration not stated): 8

Challenge: Which zone of inhibition at 1000 µg/mL is reported for this molecule? N#CC1=C(N)OC(c2ccc(Cl)cc2)=CC1c1c(-c2ccccc2)[nH]c2ccc(Cl)cc12 (configuration not stated)
Response given: 9

====

Tested on: Aspergillus terreus
Assay: Antimicrobial activity against Aspergillus terreus MTCC 1782 at 750 ug/ml after 72 hrs by cup plate method
Format: functional
Conditions: MTCC 1782, 72 h, read-out: IZ
Property: zone of inhibition at 750 µg/mL; scope: individual compounds
Give just the number in mm; leave the unit off.

Cc1ccc2[nH]c(-c3ccccc3)c(C3C=C(c4ccccc4)Oc4[nH]c(=S)nc(N)c43)c2c1 (centres undefined): 8
Cc1ccc(C2=CC(c3c(-c4ccccc4)[nH]c4ccc(C)cc34)c3c(N)nc(=S)[nH]c3O2)cc1 (centres undefined): 5
Cc1ccc(C2=CC(c3c(-c4ccccc4)[nH]c4ccc(C)cc34)C(C#N)=C(N)O2)cc1 (centres undefined): 9

Continue with the next compound.
Challenge: Which measured zone of inhibition at 750 µg/mL value corresponds to Cc1ccc2[nH]c(-c3ccccc3)c(C3C=C(c4ccc(Cl)cc4)Oc4[nH]c(=S)nc(N)c43)c2c1 (centres undefined) ?
Response given: 3

====

Recorded zone of inhibition at 500 µg/mL by entry
Tested on: Escherichia coli
Assay: Antimicrobial activity against Escherichia coli MTCC 723 at 500 ug/ml after 24 hrs by cup plate method
Format: functional
Conditions: MTCC 723, 24 h, read-out: IZ
All answers are understood in mm, so give the number only.

# example entries with known answers
Nc1n[nH]c2c1C(c1c(-c3ccccc3)[nH]c3ccccc13)C=C(c1ccc(Cl)cc1)O2 (stereo not drawn): 13
Cc1ccc(C2=CC(c3c(-c4ccccc4)[nH]c4ccc(Cl)cc34)c3c(N)nc(=O)[nH]c3O2)cc1 (stereo not drawn): 8
Cc1ccc(C2=CC(c3c(-c4ccccc4)[nH]c4ccc(C)cc34)C(C#N)=C(N)O2)cc1 (stereo not drawn): 8
Nc1nc(=O)[nH]c2c1C(c1c(-c3ccccc3)[nH]c3ccccc13)C=C(c1ccccc1)O2 (stereo not drawn): 10
N#Cc1c(N)c2c(N)c3c(nc2oc1=O)OC(c1ccccc1)=CC3c1c(-c2ccccc2)[nH]c2ccccc12 (stereo not drawn): 8
Cc1ccc(C2=CC(c3c(-c4ccccc4)[nH]c4ccc(C)cc34)c3c(nc4oc(=O)c(C#N)c(N)c4c3N)O2)cc1 (stereo not drawn): 10

Challenge: Entry under review: Nc1nc(=S)[nH]c2c1C(c1c(-c3ccccc3)[nH]c3ccccc13)C=C(c1ccccc1)O2 (stereo not drawn) . Reported zone of inhibition at 500 µg/mL?
Response given: 10

Challenge: Entry Cc1ccc2[nH]c(-c3ccccc3)c(C3C=C(c4ccccc4)Oc4[nH]c(=S)nc(N)c43)c2c1 (stereo not drawn) please
Response given: 8
